Each entry below lists one item and its recorded INHIBITION value.
System: Plasmodium berghei
Experiment: Screen against P. berghei liver stage (PbLuc), transformed with Luciferase, at 10uM
Type: functional, HepG2
Settings: tested at 10 uM
About 8,600 (12%) of roughly 69,000 compounds showed an effect of 50% or more. The sample holds strong results, similar compounds and a random draw of the others, so the mix is not that of the screen.
Only the number, expressed in %, is required.

Below: 6 compounds and their reported INHIBITION.
CC(=O)N1N=C(c2ccccc2)OC1C(=O)NCCOc1ccccc1 (stereo not given)	-12.2
Cc1cc(C)n(CC(=O)NC(Cc2ccsc2)c2ccccn2)c(=O)n1 (stereo not given)	54
CNC(=O)CN(C)Cc1ccc(F)cc1Cl	-154
COc1ccc(C2CCCN2S(=O)(=O)c2cc(F)ccc2F)cc1 (stereo not given)	62.6
CN1CCCC1CNC(=O)CCOc1ccc(Br)cc1 (stereo not given)	22.983
O=C1COC2(COCCN(Cc3cccnc3)C2)CN1c1ccoc1 (stereo not given)	12.2

Now consider the entry below.
-- ask What does the record list as INHIBITION for Cc1ccc(F)c(S(=O)(=O)N2CCCC2c2ccncc2)c1 (stereo not given) ?
-- reply 45.3

----------
Tested on: Plasmodium berghei
Test: Screen against P. berghei liver stage (PbLuc), transformed with Luciferase, at 10uM
Format: functional, HepG2
Conditions: tested at 10 uM
Out of some 69,000 compounds screened, about 8,600 (12%) showed an effect of 50% or more. This is one part of a sample in which strong results are shown more often than they occur.
Each entry below lists one item and its recorded INHIBITION value.
Only the number, expressed in %, is required.

Below: 5 molecules and their reported INHIBITION.
Cc1nn(C)cc1CN1CCc2nc3sccc3c(=O)n2CC1	30.5
N#CC1(NC(=O)c2cc(Cl)c3c(c2)OCCCO3)CCC1	-14.2
CS(=O)(=O)NCc1cncc2c1CCN(C(=O)c1cccnc1)C2	4.57
Cc1ccnc(N2CCN(Cc3ccccc3)CC(O)C2)c1 (stereo not drawn)	43.9
O=c1c2sccc2nc2n1CCN(Cc1ccsc1)CC2	5.11

-- ask What does the record list as INHIBITION for CC(C)CCn1cc(C(C(=O)O)N2CCCN(C3CCCC3)CC2)cn1 (stereo not drawn) ?
-- reply 33.9

-- ask What does the record list as INHIBITION for `CCc1ccc(C(=O)N2CCCn3nnc(Cn4cccn4)c3C2)cc1` ?
-- reply 52.3

-- ask What does the record list as INHIBITION for `Cc1cccc(NC(=O)[C@@H]2CCCN2Cc2ccccc2C#N)n1` ?
-- reply 0.342

-- ask What does the record list as INHIBITION for `CC(C)(C)c1n[nH]cc1CN1CCc2nc3ccsc3c(=O)n2CC1` ?
-- reply 50.6

-- ask What does the record list as INHIBITION for `O=C(NCC1CCCCC1)N1C[C@@H]2C[C@@H]1CN2` ?
-- reply 9.97

-- ask What does the record list as INHIBITION for `O=C(CO)N1CCCn2nnc(Cn3cccn3)c2C1` ?
-- reply 12.1

-- ask What does the record list as INHIBITION for `O=C(c1ccncc1)N1CCCn2nnc(Cn3cccn3)c2C1` ?
-- reply 33

-- ask What does the record list as INHIBITION for O=C1N(c2ccsc2)CCC12CCCN(Cc1cccnc1)C2 (stereo not drawn) ?
-- reply -18.2

-- ask What does the record list as INHIBITION for `Cc1ccccc1C(=O)N1CCCn2nnc(Cn3cccn3)c2C1` ?
-- reply -16.9

-- ask What does the record list as INHIBITION for `CC(C)N1CCc2[nH]nc(C(=O)N3CCOCC3)c2C1` ?
-- reply -1.12

-- ask What does the record list as INHIBITION for COCCN1CCCC2(CCN(c3ccsc3)C2=O)C1 (stereo not drawn) ?
-- reply 39.2

-- ask What does the record list as INHIBITION for `Cc1ocnc1C(=O)N(C)[C@@H]1CC[C@@H](Oc2ccccc2)[C@@H]1O` ?
-- reply 16.2

-- ask What does the record list as INHIBITION for `Cc1cccc(NC(=O)[C@@H]2CCCN2CC(=O)Nc2ccccc2)n1` ?
-- reply 76.5
